What XC50 was measured for each of the following?
test system: Plasmodium falciparum; experiment: GSK_TCMDC: Inhibition of Plasmodium falciparum 3D7 in whole erythrocytes, using parasite LDH activity as an index of growth.; format: functional, organism-based; conditions: Plasmodium falciparum, 3D7
Hi! Could you send only the number? It should be in µM, unit omitted.

Data request: Report XC50 for OC(CNc1ccnc(Nc2ccc(Cl)cc2)n1)c1ccc(C(F)(F)F)cc1 (stereo not given) please.
Data returned: 0.771

Data request: Value lookup for XC50; key = `CN1CCC(NCCS(=O)(=O)c2cccc(Nc3ccc(-c4cccc(F)c4)cn3)c2)CC1`
Data returned: 1.36

Data request: # input compound: `CN1CCN(c2ccnc3cc4c(cc23)N(Cc2ccccc2)CC4)CC1` ; wanted: its XC50
Data returned: 1.14

Data request: Consider the compound `O=C(NCCN1CCCC1)c1cccc(-c2ccc(-c3nc4ccccc4[nH]3)cc2)c1` and give its measured XC50.
Data returned: 0.919

Data request: Requested read-out: XC50. Entry: `COc1cc(C=CC(=O)N2CCC3(CC2)CC(=O)c2ccccc2O3)cc(OC)c1OC`
Data returned: 0.761

Data request: Field request: XC50 | item: `CON(CCCN(C)C)C(=N)N`
Data returned: 1.08

Data request: Item under review: O=[N+]([O-])c1cccc(CNCC2CCC(CNCc3cccc([N+](=O)[O-])c3)CC2)c1 (stereo not given) . Reported XC50?
Data returned: 0.138

Data request: Given the entry COc1cc(Nc2nccc(NCC(O)c3ccc(C(F)(F)F)cc3)n2)cc(OC)c1OC (stereo not given) , report its measured XC50.
Data returned: 0.92

Data request: Entry under review: `CCn1ccc2c(N3CCCS3(=O)=O)cc(C(=O)N[C@@H](Cc3ccccc3)[C@H](O)CNC(C)(C)CCCC(C)C)cc21` . Reported XC50?
Data returned: 0.491

Data request: Which measured XC50 value corresponds to `COC(=O)Cn1c2ccccc2c2c(N)c(C(=O)OC)c(C)nc21` ?
Data returned: 0.938

* * *

test system: Plasmodium falciparum; assay: GSK_TCMDC: Inhibition of Plasmodium falciparum 3D7 in whole erythrocytes, using parasite LDH activity as an index of growth.; assay type: functional, organism-based; settings: Plasmodium falciparum, 3D7
Could you mark each record true if its XC50 falls strictly under 700 nM, and false if it equals or exceeds it?

Data request: I'd appreciate it if you could check whether O=C(OCc1ccccc1)N1CCc2c([nH]c3ccccc23)C1CCC(F)(F)F (centres undefined) has XC50 smaller than 700 nM.
Data returned: true

Data request: is_below(XC50, 700 nM) for `c1cc(CN2CCN(CCN3CCOCC3)CC2)cc(-c2cccc(-c3nc4ccccc4[nH]3)c2)c1` ?
Data returned: true

Data request: XC50 under 700 nM? Item: Cc1cccc2nc(-c3ccc(-c4ccc(CN5CCCC5CN)cc4)cc3)[nH]c12 (centres undefined)
Data returned: false

Data request: Find out if reported XC50 for O=C(NC1CCC1)C1CCN(C(c2ccccc2)c2cc(F)cc(F)c2)CC1 (centres undefined) is less than 700 nM
Data returned: false

Data request: Hi there! Is XC50 for `Cc1c(F)cc(C(=O)NC2CC2)cc1-c1ccc2c(cnn2S(=O)(=O)c2ccc(F)c(F)c2)c1` below 700 nM, do you know?
Data returned: true

Data request: A record lists `C(=Cc1ccccc1)C=NN=c1cc[nH]c2ccccc12` . Is its XC50 below 700 nM?
Data returned: false

Data request: Field: below-cutoff. Rule: recorded XC50 strictly less than 700 nM. Subject: `COC(=O)[C@@H](NC(=O)[C@@H](Nc1ccc(C#N)c2ccccc12)C(C)(C)C)c1ccc(O)cc1`
Data returned: false

Data request: Please indicate whether the reported XC50 of O=C(/C=C/c1cccc2ccccc12)NC1CCC(CN2CCC(c3c[nH]c4ccccc34)CC2)CC1 (centres undefined) is strictly below 700 nM.
Data returned: true

Data request: Determine if `Cn1cnc(CCNC(=O)c2cccc(-c3csc(-c4nc5ccccc5[nH]4)c3)c2)c1` shows XC50 strictly lower than 700 nM.
Data returned: true

* * *

system: Plasmodium falciparum; test: GSK_TCMDC: Inhibition of Plasmodium falciparum 3D7 in whole erythrocytes, using parasite LDH activity as an index of growth.; format: functional, organism-based; settings: Plasmodium falciparum, 3D7
// classify: if (XC50 < 200 nM) class 1 else class 0

Data request: Record `Nc1nc(N)c2c(CCc3ccc4ccccc4c3)cccc2n1` : is its XC50 strictly below 200 nM?
Data returned: class 0

Data request: For `CCOc1c(N2CCN(CCCCNC(=O)c3ccc(NC(=O)c4ccc(Cl)cc4)cc3)CC2)ccc2ccccc12` , is the recorded XC50 below the cut-off of 200 nM?
Data returned: class 0

Data request: # strict comparison: is reported XC50 < 200 nM? input = `N=C1N=C(N)NC2(CCCCC2)N1OCCCOc1cc(Cl)c(Cl)cc1Cl`
Data returned: class 1

Data request: Lab note: XC50 threshold 200 nM. Does this molecule come in strictly under it? CC(=O)Nc1ccc2[nH]cc(C3CCN(CC4CCC(NC(=O)/C=C/c5ccccc5Cl)CC4)CC3)c2n1 (stereo not given)
Data returned: class 0

Data request: XC50 under 200 nM? Item: `CCN(CC)c1cc(C)c2cc(NC(=O)c3cc(=O)c4ccccc4o3)ccc2n1`
Data returned: class 0

* * *

Please go through the items and note down their XC50.
tested on: Plasmodium falciparum; assay: GSK_TCMDC: Inhibition of Plasmodium falciparum 3D7 in whole erythrocytes, using parasite LDH activity as an index of growth.; type: functional, organism-based; conditions: Plasmodium falciparum, 3D7

Data request: Could you tell me which XC50 is on file for `CC(C)C(=O)Nc1c(F)cc(F)cc1CCc1ccc(O)cc1` ?
Data returned: 504 nM

Data request: Which XC50 reading was recorded for the molecule COc1cccc(CN2CCCC(OC(c3ccc(F)cc3)c3ccc(F)cc3)C2)c1O (stereo unspecified) ?
Data returned: 788 nM

Data request: Name the reported XC50 value associated with the molecule `c1cc(CN2CCC(CCN3CCCCC3)CC2)cc(-c2cccc(-c3nc4ccccc4[nH]3)c2)c1`
Data returned: 140 nM

Data request: Can you look up the measured XC50 of `FC(F)(F)c1ccc(Nc2nnnc3ccccc23)cc1` for me?
Data returned: 692 nM

Data request: Data request, read-out XC50, for `COc1ccc2[nH]c(C)cc(=NN=Cc3ccc(Cl)cc3)c2c1`
Data returned: 228 nM

Data request: Need XC50 of CC(CN1CCN(CC(c2ccc(F)cc2)N2CCN(C)CC2)CC1)C(=O)c1ccc(O)cc1 (stereo unspecified) , thanks.
Data returned: 672 nM

Data request: What measured XC50 goes with `CN1CCN(CCCNc2ncc3c(-c4ccc(NC(=O)Nc5cc(C(F)(F)F)ccc5F)c(F)c4)nn(C)c3n2)CC1` ?
Data returned: 859 nM

Data request: Looking for the measured XC50 of `COc1cc2c(OC)cccc2cc1CNCCCCCCNCc1cc2cccc(OC)c2cc1OC` , can you help?
Data returned: 823 nM

Data request: Recorded XC50 for `COc1ccc2nccc(N3CCC(CCNCc4cc5c(cn4)OCCO5)CC3)c2n1` , please?
Data returned: 224 nM

Data request: Data request, read-out XC50, for `Fc1cccc(Nc2nc(NCc3ccc(Cl)c(Cl)c3)nc(Nc3cccc(F)c3)n2)c1`
Data returned: 748 nM

Data request: Name the recorded XC50 for `CN(CCO)Cc1cccc(-c2ccc(NC(=O)c3cccc(C#N)c3)cc2)c1` .
Data returned: 796 nM

Data request: # XC50 lookup, item `CC(C)CNCc1cccc(-c2ccccc2CNC2CCN(Cc3ccccc3)CC2)c1`
Data returned: 579 nM

Data request: Returns the measured XC50 for the input molecule. Input: `C[C@@H](COc1ccc(-c2ccccc2)cc1)CON1C(N)=NC(N)=NC1(C)C`
Data returned: 3.2 nM

Data request: # XC50 lookup, item `Cc1cc(NC(=O)c2cccs2)ccc1OC1CCN(Cc2ccc(F)cc2)CC1`
Data returned: 481 nM

Data request: Request the reported XC50 associated with `CN1CCN(c2cc3c(cc2Br)CCN3C(=O)Nc2ccc(-c3cnc4ccccc4c3)cc2)CC1`
Data returned: 576 nM

Data request: Which XC50 reading was recorded for the molecule `CCCCCN1C(=O)C(c2ccccc2)(c2ccccc2)N=C1N` ?
Data returned: 793 nM

Data request: Please look up its XC50: `CC(C)(C)c1nn(-c2ccccc2)c2[nH]c(=O)c(CNCc3ccccc3)cc12`
Data returned: 1050 nM

Data request: Dear colleague, I am looking for the recorded XC50 of the following molecule: `Cc1nc2nc(N)nc(N)c2c(C)c1Cc1c(Cl)cccc1Cl`
Data returned: 48.9 nM

Data request: Look up XC50 for this molecule: `CCOC(=O)COc1cccc(CNc2ccc3nc(N)nc(N)c3c2)c1`
Data returned: 408 nM

Data request: Given the entry `COc1ccc(Cl)cc1N1CCN(CCCNC(=O)c2ccc(-c3nc4cc(Cl)c(Cl)cc4[nH]3)c(C)c2)CC1` , report its measured XC50.
Data returned: 866 nM

Data request: Endpoint output: XC50 of `CCCN(C(=O)c1ccccc1C)c1nnc(-c2cccc(C)c2)s1` . Value?
Data returned: 896 nM

Values compiled from ChEMBL document CHEMBL1157539.
